Would you kindly list viability for each of these compounds?
Assay: TH17 cell viability (Prestoblue)
Assay type: cell-based
Design: concentration or dose not given beside the values
Conditions: human; percentage of DMSO treated cells; read-out: % viability of compound treated TH17 cells

As a guide, the following entries are already answered.
CC(=O)Nc1ccc2c(c1)CCCN2Cc1ccc(C(O)(C(F)(F)F)C(F)(F)F)cc1; > 80%
CC(=O)Nc1ccc2c(c1)CCN2Cc1ccc(C(F)(F)F)cc1; > 80%

Entry CC(=O)Nc1ccc2c(c1)CCC(=O)N2Cc1ccc(C(O)(C(F)(F)F)C(F)(F)F)cc1 ; viability = > 80%

----------
Biological target: RORγ LBD (Homo sapiens (Human))
Sequence (P51449 269-508): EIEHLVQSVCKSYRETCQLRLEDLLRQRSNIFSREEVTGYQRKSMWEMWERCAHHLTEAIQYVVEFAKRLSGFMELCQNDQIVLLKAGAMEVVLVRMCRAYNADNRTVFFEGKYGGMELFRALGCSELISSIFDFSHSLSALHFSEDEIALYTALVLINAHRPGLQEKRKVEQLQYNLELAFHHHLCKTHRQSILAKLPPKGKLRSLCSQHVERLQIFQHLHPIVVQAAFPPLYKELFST
Test: TR-FRET co-activator D22 interaction with RORγ LBD
Format: biochemical
Conditions: 20 hr; read-out: RORγ EC50 D22 co-activator displacement 20 hr
measurement_name: EC50

As a guide, the following entries are already answered.
CC(=O)Nc1ccc2c(c1)CCCN2Cc1ccc(C(O)(C(F)(F)F)C(F)(F)F)cc1; < 30 µM
CC(=O)Nc1ccc2c(c1)CCN2Cc1ccc(C(F)(F)F)cc1; < 30 µM
CS(=O)(=O)Nc1ccc2c(c1)CCCN2Cc1ccc(C(O)(C(F)(F)F)C(F)(F)F)cc1; < 30 µM

// each listed compound needs a value for EC50
1. CC(=O)Nc1ccc2c(ccn2Cc2ccc(C(O)(C(F)(F)F)C(F)(F)F)cc2)c1
2. CC(=O)Nc1ccc2c(c1)CCN2Cc1ccc(-c2cc(C)n[nH]2)cc1
3. CC(=O)Nc1ccc2c(c1)CCC(=O)N2Cc1ccc(C(O)(C(F)(F)F)C(F)(F)F)cc1
4. CC(=O)Nc1ccc2c(c1)CCN2Cc1ccc(C(O)(C(F)(F)F)C(F)(F)F)cc1
5. CC(=O)Nc1ccc2c(c1)CCN2Cc1ccc(C(=O)N(C)c2ccccc2)cc1
6. CS(=O)(=O)Nc1ccc2c(c1)CCC(=O)N2Cc1ccc(C(O)(C(F)(F)F)C(F)(F)F)cc1
7. CC(=O)Nc1ccc2c(c1)CCN2Cc1ccc(C2(O)CCC2)cc1

Output:
1: < 30 µM; 2: > 30 µM; 3: < 30 µM; 4: < 30 µM; 5: > 30 µM; 6: > 30 µM; 7: > 30 µM
